# System under test: xanthine oxidase (XOD) (Bos taurus, UniProt P80457)
# Method: Xanthine oxidase (XOD) inhibition test, offline 96-well microplate
Readout kind: IC50 (mM)
Value expressed in mM; do not type the unit.

Recorded IC50 for OC[C@H]1O[C@@H](Oc2cc(O)cc(/C=C/c3ccc(O)cc3)c2)[C@H](O)[C@@H](O)[C@@H]1O , please?
2.13

====

# System under test: XOD (Bos taurus, UniProt P80457)
# Construct: purchased Sigma-Aldrich (Shanghai, China)
# Sequence (P80457 whole entry): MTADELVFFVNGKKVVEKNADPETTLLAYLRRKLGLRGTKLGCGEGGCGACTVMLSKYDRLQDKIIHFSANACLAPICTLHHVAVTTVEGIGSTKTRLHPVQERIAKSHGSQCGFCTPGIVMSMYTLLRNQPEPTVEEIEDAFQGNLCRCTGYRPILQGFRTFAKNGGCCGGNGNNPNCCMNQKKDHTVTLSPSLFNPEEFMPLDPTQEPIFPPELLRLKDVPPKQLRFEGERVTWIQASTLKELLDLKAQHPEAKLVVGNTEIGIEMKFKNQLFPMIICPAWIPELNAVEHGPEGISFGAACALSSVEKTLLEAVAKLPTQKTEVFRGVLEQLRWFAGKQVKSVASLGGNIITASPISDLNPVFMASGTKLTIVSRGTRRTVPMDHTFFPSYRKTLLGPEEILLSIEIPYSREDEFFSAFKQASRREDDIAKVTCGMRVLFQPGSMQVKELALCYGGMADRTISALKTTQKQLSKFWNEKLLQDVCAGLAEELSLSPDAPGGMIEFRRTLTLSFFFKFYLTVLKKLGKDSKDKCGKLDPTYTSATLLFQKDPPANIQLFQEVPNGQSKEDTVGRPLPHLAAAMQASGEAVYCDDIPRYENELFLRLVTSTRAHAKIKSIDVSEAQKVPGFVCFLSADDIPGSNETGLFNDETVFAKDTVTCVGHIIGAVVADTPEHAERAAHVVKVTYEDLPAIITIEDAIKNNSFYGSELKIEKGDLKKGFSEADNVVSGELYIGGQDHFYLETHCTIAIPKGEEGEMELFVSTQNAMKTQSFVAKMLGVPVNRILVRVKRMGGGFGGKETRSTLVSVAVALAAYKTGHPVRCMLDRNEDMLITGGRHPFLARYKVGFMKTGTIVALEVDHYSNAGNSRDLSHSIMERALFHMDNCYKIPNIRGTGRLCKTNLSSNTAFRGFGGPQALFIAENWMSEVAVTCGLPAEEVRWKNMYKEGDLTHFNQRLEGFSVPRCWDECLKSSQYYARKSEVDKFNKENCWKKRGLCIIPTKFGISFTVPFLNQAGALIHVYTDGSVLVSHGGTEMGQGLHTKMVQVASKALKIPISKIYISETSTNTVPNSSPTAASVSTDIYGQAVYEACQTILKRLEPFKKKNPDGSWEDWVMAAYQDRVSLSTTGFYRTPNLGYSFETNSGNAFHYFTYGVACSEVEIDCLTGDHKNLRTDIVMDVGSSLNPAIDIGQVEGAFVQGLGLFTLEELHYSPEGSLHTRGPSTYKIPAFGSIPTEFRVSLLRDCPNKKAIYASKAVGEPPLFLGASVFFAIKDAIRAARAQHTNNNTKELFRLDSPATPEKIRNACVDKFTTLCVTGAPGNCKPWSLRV
# Method: UF-HPLC screening, binding degree with XOD
# Condition summary: PCR extraction 5 mg/mL, 4 U/mL XOD, 37 °C 60 min, active vs inactive enzyme peak area
Readout kind: Binding degree: XOD (%)
Value expressed in %; do not type the unit.

Give recorded Binding degree: XOD with XOD (Bos taurus, UniProt P80457) for the following compound: O=C(O)CC(=O)OCC1OC(Oc2cc(O)cc(C=Cc3ccc(O)cc3)c2)C(O)C(O)C1O (centres unmarked) [Malonyl glucoside resveratrol (6), Malonyl glucoside resveratrol]
49.77

Others:
Give recorded Binding degree: XOD with XOD (Bos taurus, UniProt P80457) for the following compound: O=C(OC[C@H]1O[C@@H](OC(=O)c2cc(O)c(O)c(O)c2)[C@H](O)[C@@H](O)[C@@H]1O)c1cc(O)c(O)c(O)c1 [1,6-Di-O-galloyl-D-glucose (2), 1,6-Di-O-galloyl-D-glucose]
50.69

Give recorded Binding degree: XOD with XOD (Bos taurus, UniProt P80457) for the following compound: COC(=O)c1cc(O)c(O)c(O)c1 [Methylgallate (1), Methylgallate]
0.00

Give recorded Binding degree: XOD with XOD (Bos taurus, UniProt P80457) for the following compound: OC[C@H]1O[C@@H](Oc2ccc(/C=C/c3cc(O)cc(O)c3)cc2)[C@H](O)[C@@H](O)[C@@H]1O [Resveratrol-4′-O-D-glucoside (4), Resveratrol-4′-O-D-glucoside]
30.66

Give recorded Binding degree: XOD with XOD (Bos taurus, UniProt P80457) for the following compound: OC[C@H]1O[C@@H](Oc2ccc(/C=C/c3cc(O)cc(O[C@@H]4O[C@H](CO)[C@@H](O)[C@H](O)[C@H]4O)c3)cc2)[C@H](O)[C@@H](O)[C@@H]1O [Polydatin-4′-O-D-glucoside (3), Polydatin-4′-O-D-glucoside]
0.00

====

# Tested on: α-GLU
# Method: UF-HPLC screening, binding degree with α-GLU
# Condition summary: PCR extraction 5 mg/mL, 6 U/mL α-GLU, 37 °C 60 min, active vs inactive enzyme peak area
Readout kind: Binding degree: α-GLU
Just so you know, I need the unit written after the number.

Guide cases for Binding degree: α-GLU, answers given:
Give recorded Binding degree: α-GLU with α-GLU for the following compound: O=C(OC[C@H]1O[C@@H](OC(=O)c2cc(O)c(O)c(O)c2)[C@H](O)[C@@H](O)[C@@H]1O)c1cc(O)c(O)c(O)c1 [1,6-Di-O-galloyl-D-glucose (2), 1,6-Di-O-galloyl-D-glucose]
0.00%

Give recorded Binding degree: α-GLU with α-GLU for the following compound: COC(=O)c1cc(O)c(O)c(O)c1 [Methylgallate (1), Methylgallate]
0.00%

Give recorded Binding degree: α-GLU with α-GLU for the following compound: OC[C@H]1O[C@@H](Oc2ccc(/C=C/c3cc(O)cc(O[C@@H]4O[C@H](CO)[C@@H](O)[C@H](O)[C@H]4O)c3)cc2)[C@H](O)[C@@H](O)[C@@H]1O [Polydatin-4′-O-D-glucoside (3), Polydatin-4′-O-D-glucoside]
0.00%

Give recorded Binding degree: α-GLU with α-GLU for the following compound: OC[C@H]1O[C@@H](Oc2ccc(/C=C/c3cc(O)cc(O)c3)cc2)[C@H](O)[C@@H](O)[C@@H]1O [Resveratrol-4′-O-D-glucoside (4), Resveratrol-4′-O-D-glucoside]
14.58%

Others:
Give recorded Binding degree: α-GLU with α-GLU for the following compound: O=C(O)CC(=O)OCC1OC(Oc2cc(O)cc(C=Cc3ccc(O)cc3)c2)C(O)C(O)C1O (centres unmarked) [Malonyl glucoside resveratrol (6), Malonyl glucoside resveratrol]
11.90%

====

# Test system: TYR
# Method: UF-HPLC screening, binding degree with TYR
# Condition summary: PCR extraction 5 mg/mL, 200 U/mL TYR, 37 °C 60 min, active vs inactive enzyme peak area
# Experimental: The UF experiment was performed according to the method described in the literature, with slight modifications. In the experimental group, 200 µL of the PCR extraction (5 mg/mL) was mixed with 200 µL of 3 enzyme solutions (200 U/mL of TYR, 4 U/mL of XOD, and 6 U/mL of α-GLU, respectively). […] Finally, the unbound component solutions of the experimental and control groups were analyzed by HPLC. […]
Readout kind: Binding degree: TYR (%)
Value expressed in %; do not type the unit.

Recorded Binding degree: TYR for OC[C@H]1O[C@@H](Oc2ccc(/C=C/c3cc(O)cc(O[C@@H]4O[C@H](CO)[C@@H](O)[C@H](O)[C@H]4O)c3)cc2)[C@H](O)[C@@H](O)[C@@H]1O [Polydatin-4′-O-D-glucoside (3), Polydatin-4′-O-D-glucoside] , please?
57.64

Recorded Binding degree: TYR for COC(=O)c1cc(O)c(O)c(O)c1 [Methylgallate (1), Methylgallate] , please?
36.03

Others:
Recorded Binding degree: TYR for O=C(O)CC(=O)OCC1OC(Oc2cc(O)cc(C=Cc3ccc(O)cc3)c2)C(O)C(O)C1O (centres unmarked) [Malonyl glucoside resveratrol (6), Malonyl glucoside resveratrol] , please?
57.00

Recorded Binding degree: TYR for OC[C@H]1O[C@@H](Oc2ccc(/C=C/c3cc(O)cc(O)c3)cc2)[C@H](O)[C@@H](O)[C@@H]1O [Resveratrol-4′-O-D-glucoside (4), Resveratrol-4′-O-D-glucoside] , please?
71.32

Recorded Binding degree: TYR for O=C(OC[C@H]1O[C@@H](OC(=O)c2cc(O)c(O)c(O)c2)[C@H](O)[C@@H](O)[C@@H]1O)c1cc(O)c(O)c(O)c1 [1,6-Di-O-galloyl-D-glucose (2), 1,6-Di-O-galloyl-D-glucose] , please?
77.53

Data provenance is paper PMC10221946.
